Entries and their measured KINOMEscan: PLK3 follow.
target: panel of 442 kinases (Homo sapiens); construct: purchased KINOMEscan; format: binding; details: Compound Concentration 10 µM
Sequence (Q9H4B4 whole entry): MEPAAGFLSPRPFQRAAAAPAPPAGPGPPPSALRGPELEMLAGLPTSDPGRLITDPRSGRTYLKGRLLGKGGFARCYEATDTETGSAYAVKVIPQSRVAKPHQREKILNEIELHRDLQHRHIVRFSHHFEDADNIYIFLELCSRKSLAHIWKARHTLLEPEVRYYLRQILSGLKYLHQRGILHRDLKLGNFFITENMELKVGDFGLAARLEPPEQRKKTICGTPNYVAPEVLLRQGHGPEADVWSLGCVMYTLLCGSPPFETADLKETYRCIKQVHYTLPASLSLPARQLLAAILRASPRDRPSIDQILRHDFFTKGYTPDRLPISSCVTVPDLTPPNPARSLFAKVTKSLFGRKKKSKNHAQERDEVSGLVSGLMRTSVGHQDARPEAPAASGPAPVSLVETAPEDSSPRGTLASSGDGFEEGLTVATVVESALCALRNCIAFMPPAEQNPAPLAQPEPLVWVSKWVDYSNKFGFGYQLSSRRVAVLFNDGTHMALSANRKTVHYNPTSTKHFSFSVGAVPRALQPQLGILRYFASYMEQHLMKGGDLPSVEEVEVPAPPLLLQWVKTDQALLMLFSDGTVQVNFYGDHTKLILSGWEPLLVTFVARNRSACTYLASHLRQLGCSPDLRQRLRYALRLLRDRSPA
Lab note: jot the number down without any unit.

A selection of reference data follows.
COc1cc(C(=O)N2CCC(N3CCN(C)CC3)CC2)ccc1Nc1ncc2c(n1)N(C)c1ccccc1C(=O)N2C: 51
COc1cc(C(=O)N2CCC(N3CCN(C)CC3)CC2)ccc1Nc1ncc2c(n1)N1CCc3cccc(c31)C(=O)N2C: 3.8
CCOc1cc(C(=O)N2CCC(N3CCN(C)CC3)CC2)ccc1Nc1ncc2c(n1)N(C1CCCC1)c1ccccc1C(=O)N2C: 84

Please turn your attention to the following entry.
get_value(item= `COc1cc(C(=O)N2CCC(N3CCN(C)CC3)CC2)ccc1Nc1ncc2c(n1)N(C1CCCC1)c1ccccc1C(=O)N2C` , readout=KINOMEscan: PLK3) returns 73
